Values were extracted from patent US20260167721A1.

Biological target: T1, recombinant human CD3 epsilon/delta heterodimer (human, UniProt P07766 23-126; P04234 22-105)
T1 construct: Recombinant heterodimer used as analyte in Octet; also called hCD3 E/D; human CD3E/D
T1 sequence (P07766 23-126, stated change not applied, chain 1 of 2): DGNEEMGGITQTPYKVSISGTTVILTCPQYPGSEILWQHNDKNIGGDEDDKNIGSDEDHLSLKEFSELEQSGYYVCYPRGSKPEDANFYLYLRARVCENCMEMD
T1 sequence (P04234 22-105, stated change not applied, chain 2 of 2): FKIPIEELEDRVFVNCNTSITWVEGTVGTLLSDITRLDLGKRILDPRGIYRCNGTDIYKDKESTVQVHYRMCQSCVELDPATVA
Assay: BLI (Octet), mAb 5 ug/mL on FAB2G sensor, hCD3 E/D 200-50 nM
Experimental endpoint: Response

Solved entries (count: 2):
| Binder | Experimental endpoint | Assay value |
| --- | --- | --- |
| ABL-CD3-76 (antibody, V domains shown, mAb purified from hybridoma; chimeric AlivaMab IgG (human VH, CH1 and upper hinge; mouse middle hinge, CH2, CH3; human light chain)) VH: EVQLVESGGGLVKPGGSLRLSCAASGFTFSNYYMNWVRQAPGKGLERVSSISSSSNYIYYADSVKGRFTISRDNAKNSLYLQMNSLRAEDTAVYYCARDRRELPLDYWGQGTVVTVSS VL: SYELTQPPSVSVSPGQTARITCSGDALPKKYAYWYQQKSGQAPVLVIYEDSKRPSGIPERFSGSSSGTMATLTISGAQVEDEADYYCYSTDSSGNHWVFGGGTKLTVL | Response | 0.53 |
| ABL-CD3-72 (antibody, V domains shown, mAb purified from hybridoma; chimeric AlivaMab IgG (human VH, CH1 and upper hinge; mouse middle hinge, CH2, CH3; human light chain)) VH: EVQLVESGGGLVKPGGSLRLSCAASGFTFSTYIMNWVRQAPGKGLEWVSSISSSRSYIYYADSVKGRFTISRDNAKNSLYLQMNSLRAEDTAVYYCAREDRYRLFFDYWGQGTLVTVSS VL: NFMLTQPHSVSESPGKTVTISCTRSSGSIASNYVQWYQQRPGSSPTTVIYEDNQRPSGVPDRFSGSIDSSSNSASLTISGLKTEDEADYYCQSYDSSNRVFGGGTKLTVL | Response | 0.17 |

// moving on: another record for Response
What Response value was documented for this binder, ABL-CD3-87 (antibody, V domains shown, mAb purified from hybridoma; chimeric AlivaMab IgG (human VH, CH1 and upper hinge; mouse middle hinge, CH2, CH3; human light chain)) VH: EVQLVESGGGLVKFGGSLRLSCAASGFTFSRYSMNWVRQAPGKGLEWVSSISSSSSYKYYADSVKGRFTISRDNAKNSLYLQMNSLRAEDTAVYYCAREGGNSHGMDVWGQGTTVTVSS VL: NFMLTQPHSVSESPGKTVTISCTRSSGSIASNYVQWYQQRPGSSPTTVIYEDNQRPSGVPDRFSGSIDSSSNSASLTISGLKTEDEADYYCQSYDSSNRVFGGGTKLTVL ?
0.0358
